# system-under-test: T1, CC2-LZ domain of NEMO (species and construct not stated for this assay) (Mus musculus (Mouse), UniProt O88522 251-337)
# T1 construct: not shown: N-terminal histidine tag and vector residues from pET28
# T1 sequence (O88522 251-337 limits assumed, form in doubt): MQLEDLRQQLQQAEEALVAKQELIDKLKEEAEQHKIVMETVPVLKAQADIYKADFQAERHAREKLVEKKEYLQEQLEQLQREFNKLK
# assay: fluorescence polarisation, N-terminally Fluorescein- or Cy5-labelled peptide, pH 7, ambient temperature, 20 mM Tris-Acetate-MES, 200 mM KCl, 0.5% Tween 20
pKd: −log10 of the molar value. No end group written: not given here.
quantity: pKd

TVAQLKAQFDIHQAEHQAVKHELEKIEEDFEYIEEQLEQLQREFNKLKSG (also: N-terminal Fluorescein or Cy5, Peptide probe designed from the crystal structure of the CC2-LZ domain) [peptide P8RD]: 7.22
TVAQLKAQHDIYEAEHQAVEHELEKLEEELEYIKEELEQLQREFNKLSG (also: N-terminal Fluorescein or Cy5, Peptide probe designed from the crystal structure of the CC2-LZ domain) [peptide PH4]: 6.77

Where do these numbers come from? They come from patent US20110159598A1.
